# PROTOCOL_TEXT: Solubility in different aqueous media at 37° C.
# Format: physicochemical
# CONDITION_NOTES: sodium phosphate buffer, 37 °C, pH 6.8, aqueous buffer, thermodynamic from solid, 0.05M sodium phosphate buffer pH 6.8; 3 days; single replicates; read-out: Solubility, μg dissolved per mL at 37° C., replicates
QUANTITY_NAME: solubility at 3 days (µg/mL)
Reply numerically in µg/mL, unit not repeated.

Notebook: C[C@@H]1CCC[C@H](n2cnc(-c3cc(Cl)ccc3-n3cc(Cl)nn3)cc2=O)c2cc(ccn2)-c2c(cnn2C(F)F)NC1=O [P1.Acetone solvate] , solubility at 3 days read as 1.56

----------
# PROTOCOL_TEXT: Solubility of milvexian forms in organic solvent systems
# Type: physicochemical
# CONDITION_NOTES: 90/10 DCM/MeOH, 40 °C, organic solvent or mixture, 90/10 DCM/MeOH; temperature 40; read-out: Solubility in mg/mL solution
# Experimental: While heating of the feed solution is a viable solution for production, it is a more complex set-up and with risk of crashing out dissolved solids in case of cold spots and plant safety. […] Based on the data it was determined that 70/30 w/w % DCM/MeOH and 80/20 w/w % were promising solvent mixtures and more accurate solubility determination was carried out for 80/20 w/w % DCM/MeOH for both FORM A and P1.Acetone solvate at 20° C. with the results shown in Table 12 below. […]
QUANTITY_NAME: solubility

Notebook: C[C@@H]1CCC[C@H](n2cnc(-c3cc(Cl)ccc3-n3cc(Cl)nn3)cc2=O)c2cc(ccn2)-c2c(cnn2C(F)F)NC1=O , solubility read as > 200 mg/mL

----------
# PROTOCOL_TEXT: Solubility of milvexian forms in organic solvent systems
# Format: physicochemical
# CONDITION_NOTES: DCM/MeOH solvent systems of Table 12, 20 °C, organic solvent or mixture, DCM/MeOH solvent systems of Table 12; read-out: solubilities achievable
QUANTITY_NAME: solubility

Notebook: C[C@@H]1CCC[C@H](n2cnc(-c3cc(Cl)ccc3-n3cc(Cl)nn3)cc2=O)c2cc(ccn2)-c2c(cnn2C(F)F)NC1=O [FORM A] , solubility read as > 220 mg/mL

----------
# PROTOCOL_TEXT: Solubility of milvexian forms in organic solvent systems
# Type: physicochemical
# CONDITION_NOTES: 60/40 DCM/MeOH, 20 °C, organic solvent or mixture, 60/40 DCM/MeOH; temperature 20; read-out: Solubility in mg/mL solution
QUANTITY_NAME: solubility

Notebook: C[C@@H]1CCC[C@H](n2cnc(-c3cc(Cl)ccc3-n3cc(Cl)nn3)cc2=O)c2cc(ccn2)-c2c(cnn2C(F)F)NC1=O , solubility read as 120 mg/mL

----------
# PROTOCOL_TEXT: Solubility of milvexian forms in organic solvent systems
# Assay type: physicochemical
# CONDITION_NOTES: 90/10 DCM/MeOH, 20 °C, organic solvent or mixture, thermodynamic from solid, 90/10 DCM/MeOH; 20° C.; 24 hours; read-out: Solubility in mg/mL solution 24 hours
QUANTITY_NAME: solubility at 24 hours (mg/mL)
Reply numerically in mg/mL, unit not repeated.

Notebook: C[C@@H]1CCC[C@H](n2cnc(-c3cc(Cl)ccc3-n3cc(Cl)nn3)cc2=O)c2cc(ccn2)-c2c(cnn2C(F)F)NC1=O [P1.Acetone solvate] , solubility at 24 hours read as 222
